Would you mind telling me the reported TGI of each entry?
tested on: MDA-MB-231 breast; test: NCI tumour cell line growth inhibition, 48 h
Where a SMILES comes first, the peptide text is derived from it. [ ]: non-standard residue; d: D form. The star is where a group is joined. hSer = N[CH](CCO)C(=O)O; Boc = CC(C)(C)OC(=O)*

Request: Identify measured TGI corresponding to `CO/C(=N\N=C(/C)C(F)(F)F)c1ccncc1`
Result: > 100 µM

Request: Identify measured TGI corresponding to `NCCC1(N)CCNCC1`
Result: > 100 µM

Request: Identify measured TGI corresponding to COc1ccc(C2CC(c3cc4c(C)c(C(=O)c5ccccc5)oc4cc3O)=Nc3ccccc3S2)cc1OC (configuration not stated)
Result: > 100 µM

Request: Identify measured TGI corresponding to COc1cc2c(cc1OC)C13CCN4CC5=CCOC(CC(=O)O)C(C5CC41)C3N2 (configuration not stated)
Result: > 100 µM

Request: Identify measured TGI corresponding to `N/C(CC/C(N)=N\O)=N\O`
Result: > 100 µM

Request: Identify measured TGI corresponding to `CSc1nc2c(c(N(C)C)n1)C=Nn1c(nc3ccccc31)S2`
Result: > 100 µM

Request: Identify measured TGI corresponding to COc1ccc(-c2nc3ncccn3c2-c2ccc(S(C)=O)cc2)cc1 (configuration not stated)
Result: > 100 µM

Request: Identify measured TGI corresponding to `Cc1cc(N(CCCl)CCCl)ccc1C=Nc1cccnc1`
Result: > 100 µM

Request: Identify measured TGI corresponding to OCC1SC(n2cnc3cncnc32)C(O)C1O (configuration not stated)
Result: > 100 µM

Request: Identify measured TGI corresponding to `Cc1c(C)c(C)c(-n2c(=O)n(C)c(=O)n2C(C)(C)C)c(C)c1C`
Result: > 100 µM

Request: Identify measured TGI corresponding to `O=C(NO)c1ccc(C(=O)NO)cc1`
Result: > 100 µM

Request: Identify measured TGI corresponding to N#Cc1c(-c2ccco2)c2c(n(C3OC(CO)C(O)C(O)C3O)c1=S)CCCC2 (configuration not stated)
Result: > 100 µM

Request: Identify measured TGI corresponding to `CSc1n[nH]c(N)c1C(=O)Nc1ccc(Cl)cc1`
Result: > 100 µM

Request: Identify measured TGI corresponding to O=S(=O)(c1cccc(C(F)(F)F)c1)N1c2ccccc2-n2cccc2C1c1cccnc1 (configuration not stated)
Result: > 54.5 µM

Request: Identify measured TGI corresponding to `COc1ccccc1-c1cc2c3c(nc4ccccc42)C(=O)c2cccnc2-c3n1`
Result: > 56.7 µM

Request: Identify measured TGI corresponding to CC1OCC2OC(C)OC(C3C4=C(CC(C)(C)CC4=O)OC4=C3C(=O)CC(C)(C)C4)C2O1 (configuration not stated)
Result: > 100 µM

Request: Identify measured TGI corresponding to `NC1=CN(CCCO)C2=N/C(=C\c3ccco3)C(=O)N12`
Result: > 100 µM

Request: Identify measured TGI corresponding to `O=S(=O)(O)c1ccc(NN(c2c(O)ccc3ccccc23)S(=O)(=O)O)cc1`
Result: > 100 µM

Request: Identify measured TGI corresponding to `Cn1ncc2c(Nc3ccc(Br)cc3)nc(Nc3ccc(Br)cc3)nc21`
Result: 3.68 µM

Request: Identify measured TGI corresponding to `CCCCCCCCCCCCNC(=O)NCC(OCC)OCC`
Result: > 10 µM

Request: Identify measured TGI corresponding to COc1ccc2c(c1)Oc1nc(N)c(C#N)c(N)c1C2Sc1ccc(SC)cc1 (configuration not stated)
Result: 3.38 µM

Request: Identify measured TGI corresponding to COCCC(NC(=O)C(CC(C)C)NC(=O)OC(C)(C)C)C(N)=O (stereo not drawn) (Boc-Leu-[hSer](Me)-NH2; configuration not given here)
Result: > 100 µM

Request: Identify measured TGI corresponding to COc1ccc(C2SCC(=O)N2N=C2NC(=O)CC(=O)N2)cc1 (configuration not stated)
Result: > 100 µM

Request: Identify measured TGI corresponding to `COC[C@H]1C(=O)NCC(=O)N2NCCC[C@H]2C(=O)N(O)[C@H](C)C(=O)O[C@@H](C(C)C)[C@H](NC(=O)[C@](C)(O)[C@]2(O)CC[C@@H](CC(C)C)[C@H](C)O2)C(=O)N2NCCC[C@@H]2C(=O)N1O`
Result: 0.0432 µM

Request: Identify measured TGI corresponding to CCOn1cc(C[C@@]2(O)C(=O)OC3[C@@H](O)CO[C@@]32O)c2ccccc21 (some centres not stated)
Result: > 100 µM

Request: Identify measured TGI corresponding to Cc1c(Cl)cccc1NC(=O)CC1Sc2ccccc2NC1=O (configuration not stated)
Result: 32.1 µM

Request: Identify measured TGI corresponding to `ClCCN(CCCl)Cc1ccc(Nc2ccnc3cc(Cl)ccc23)cc1`
Result: 3.49 µM

Request: Identify measured TGI corresponding to `COc1ccc(/C=C2/CN(C(=O)c3ccccc3F)C/C(=C\c3ccc(OC)cc3)C2=O)cc1`
Result: 9.04 µM

Request: Identify measured TGI corresponding to `CCC(=O)Sc1ccccc1C(=O)Nc1ccc(Cl)cc1`
Result: 45.7 µM

Request: Identify measured TGI corresponding to `O=C1Nc2ccc(Cl)cc2/C1=C\c1c(-c2ccc(F)cc2)nc2ccccn12`
Result: 36.6 µM

Request: Identify measured TGI corresponding to `Nc1ccccc1C#C/C=C\C#Cc1ccc(F)cc1F`
Result: 33.3 µM

Request: Identify measured TGI corresponding to `COc1ccc(-n2c(CCCC(=O)O)nc3c2C(=O)c2ccccc2C3=O)cc1`
Result: > 100 µM
